For each of the compounds below, state its bioavailability.
Assay Details: Oral bioavailability in Sprague-Dawley rat 10 mg/kg
Format: ADME, organism-based
Experimental Conditions: in vivo
# number then unit; no other words

What the record says about Cc1ccc(C(=O)NC2CC2)cc1-c1ccc2c(N3CCOC[C@@H]3C)nncc2c1 : bioavailability is 57%

What the record says about Cc1ccc(C(=O)NC2CC2)cc1-c1ccc2c(-c3ccccc3C)nncc2c1 : bioavailability is 40%

What the record says about Cc1ccc(C(=O)NC2CC2)cc1-c1ccc2c(OC(C)C)nncc2c1 : bioavailability is 92%

What the record says about Cc1ccc(C(=O)NC2CC2)cc1-c1ccc2c(O[C@@H](C)C(F)(F)F)nncc2c1 : bioavailability is 72%

What the record says about Cc1ccc(C(=O)NC2CC2)cc1-c1ccc2c(NCCN3CCOCC3)nncc2c1 : bioavailability is 1%

###

Assay Details: Volume of distribution at steady state in Sprague-Dawley rat 2 mg/kg, iv
Format: ADME, organism-based
Design: dose 2 mg/kg, route intravenous
Experimental Conditions: in vivo, read-out: Vdss
Note to self: use rule met only for Vd readings below 2 L/kg; a reading exactly at 2 L/kg still gets rule not met.

Prompt: Please determine if Cc1ccc(C(=O)NC2CC2)cc1-c1ccc2c(OC(C)C)nncc2c1 is below 2 L/kg in terms of Vd.
Completion: rule not met

Prompt: Please determine if Cc1ccc(C(=O)NC2CC2)cc1-c1ccc2c(N3CCOC[C@@H]3C)nncc2c1 is below 2 L/kg in terms of Vd.
Completion: rule met

Prompt: Please determine if Cc1ccc(C(=O)NC2CC2)cc1-c1ccc2c(-c3ccccc3C)nncc2c1 is below 2 L/kg in terms of Vd.
Completion: rule met

Prompt: Please determine if Cc1ccc(C(=O)NC2CC2)cc1-c1ccc2c(O[C@@H](C)C(F)(F)F)nncc2c1 is below 2 L/kg in terms of Vd.
Completion: rule not met

Prompt: Please determine if Cc1ccc(C(=O)NC2CC2)cc1-c1ccc2c(NCCN3CCOCC3)nncc2c1 is below 2 L/kg in terms of Vd.
Completion: rule not met

###

Target Or System: Mitogen-activated protein kinase 8 (Homo sapiens)
Sequence (P45983 whole entry): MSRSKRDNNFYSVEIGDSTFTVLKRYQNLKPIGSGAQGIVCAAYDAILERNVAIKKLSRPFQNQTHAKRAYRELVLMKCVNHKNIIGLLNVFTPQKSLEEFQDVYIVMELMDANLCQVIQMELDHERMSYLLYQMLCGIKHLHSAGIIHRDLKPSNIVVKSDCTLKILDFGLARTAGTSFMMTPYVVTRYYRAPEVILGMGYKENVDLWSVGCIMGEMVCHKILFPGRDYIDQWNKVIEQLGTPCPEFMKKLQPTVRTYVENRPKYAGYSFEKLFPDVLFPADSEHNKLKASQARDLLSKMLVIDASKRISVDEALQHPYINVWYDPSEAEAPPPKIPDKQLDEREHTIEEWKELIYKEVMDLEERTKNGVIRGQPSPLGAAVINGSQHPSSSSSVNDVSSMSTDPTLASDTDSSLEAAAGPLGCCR
Assay Details: Inhibition of JNK1
For each of the molecules below, state its IC50.

What the record says about Cc1ccc(C(=O)NC2CC2)cc1-c1ccc2c(-c3ccccc3)nncc2c1 : IC50 is > 10 µM

What the record says about Cc1ccc(C(=O)NC2CC2)cc1-c1ccc2c(N3CCOC[C@@H]3C)nncc2c1 : IC50 is > 10 µM

What the record says about Cc1ccc(C(=O)NC2CC2)cc1-c1ccc2c(NCCN3CCOCC3)nncc2c1 : IC50 is > 10 µM

What the record says about Cc1ccc(C(=O)NC2CC2)cc1-c1ccc2c(OC(C)C)nncc2c1 : IC50 is > 10 µM

What the record says about Cc1ccc(C(=O)NC2CC2)cc1-c1ccc2c(O[C@H](C)C(F)(F)F)nncc2c1 : IC50 is > 10 µM

What the record says about Cc1ccc(C(=O)NC2CC2)cc1-c1ccc2c(O[C@@H](C)C(F)(F)F)nncc2c1 : IC50 is > 10 µM

What the record says about Cc1ccc(C(=O)NC2CC2)cc1-c1ccc2c(N3CCOCC3)nncc2c1 : IC50 is > 10 µM
